# Test system: OVCAR-3
# ASSAY NAME: NCI tumour cell line growth inhibition, 48 h
Activity calls are given as the source filed them. Rule as the data show it: active = GI50 up to about 1.1 µM and inactive = higher.
MEASURED METRIC: GI50

Notebook: pull reported GI50 for OVCAR-3, entry `CN1CCC(CN2c3ccccc3Sc3ccccc32)CC1`
15.3 µM (inactive)

Notebook: pull reported GI50 for OVCAR-3, entry CCCN(C(=O)c1ccccc1)C(C#N)c1ccc(C(C#N)N(CCC)C(=O)c2ccccc2)cc1 (centres undefined)
> 100 µM (inactive)

Notebook: pull reported GI50 for OVCAR-3, entry `CCCCc1nc(C)oc1C(C)C`
> 100 µM (inactive)

Notebook: pull reported GI50 for OVCAR-3, entry `CC(C)=Cc1cc(C(=O)NCCNC(=O)c2cc(C=C(C)C)nc(NC#N)n2)nc(NC#N)n1`
> 100 µM (inactive)

----------
# Tested on: OVCAR-8
# ASSAY NAME: NCI tumour cell line growth inhibition, 48 h
Active and inactive are the calls of the source. Cut-off read from the data, not from the text of the source: active = GI50 up to about 1.1 µM and inactive = higher.
MEASURED METRIC: GI50

Consider the following illustrative entries.
CC(C)=CCC[C@@H](C)/C=C/C=C(\C)C(=O)CC[C@@H]1CC[N@+]2(C)CCCC[C@H]12 :: > 100 µM (inactive)
O/N=C1/CCCC/C1=C\c1ccc(Cl)c(Cl)c1 :: 33.7 µM (inactive)
COc1ccc([C@@H]2CC(=O)N2)cc1 :: > 100 µM (inactive)
CN(C)CCCn1nc(N)c2nc3cc(Cl)ccc3nc21 :: 40.2 µM (inactive)
CCCCCCc1nn2c(-c3ccncc3)nnc2s1 :: > 10 µM (inactive)
CC1(C)Oc2ccc3c(=O)cc(-c4ccccc4)oc3c2C1C(=O)O (stereo unspecified) :: > 100 µM (inactive)
CC1=NN(C(=O)c2ccc(Cl)cc2)C(=O)/C1=C/c1ccc(Cl)cc1 :: > 100 µM (inactive)
CNC(=O)c1nnn(C2CCCCC2)c1S :: > 100 µM (inactive)

Query: GI50; subject: Clc1ccc(C(Cc2cccc(Cl)c2)c2c(Cl)nc(N3CCNCC3)nc2Cl)cc1 (stereo unspecified)
19.1 µM (inactive)

----------
# Test system: HCT-116
# ASSAY NAME: NCI tumour cell line growth inhibition, 48 h
Active and inactive are the calls of the source. Cut-off read from the data, not from the text of the source: active = GI50 up to about 1.1 µM and inactive = higher.
MEASURED METRIC: GI50

Consider the following illustrative entries.
COC(=O)c1ccc(/C=C2\N=C(C)OC2=O)cc1 :: > 100 µM (inactive)
CCOC(=O)C(/C(=N/NC(=O)OC)C(=O)Nc1ccc(C(C)=O)cc1)c1cnc2ccccc2n1 (stereo unspecified) :: > 100 µM (inactive)
Cc1cc(O)nc(CNC(=O)c2cccc3ccccc23)n1 :: > 100 µM (inactive)

Query: GI50; subject: `CN(C)c1ccc(/C=C2\N=C(c3ccccc3)N(c3ccc4c(c3)Sc3cc(N5C(=O)/C(=C/c6ccc(N(C)C)cc6)N=C5c5ccccc5)ccc3N4)C2=O)cc1`
26.3 µM (inactive)

Query: GI50; subject: NC(Cc1ccccc1)C(=O)OCN1C(=O)C2C3C=CC(C2C1=O)C1C2C(=O)N(COC(=O)C(N)Cc4ccccc4)C(=O)C2C31 (stereo unspecified)
23 µM (inactive)

Query: GI50; subject: CC(C)C(Sc1nc(-c2ccccc2)c(-c2ccccc2)[nH]1)C(=O)NN (stereo unspecified)
> 100 µM (inactive)

Query: GI50; subject: CSc1nc2nc(C(O)C(O)C(O)CO)cnc2c(=O)[nH]1 (stereo unspecified)
> 100 µM (inactive)

Query: GI50; subject: `O=S(=O)(O)CCCC1S(=O)(=O)OCCOS1(=O)=O`
> 100 µM (inactive)

Query: GI50; subject: NC(=O)CC(N)c1nnn[nH]1 (stereo unspecified)
> 100 µM (inactive)

Query: GI50; subject: `CCOc1ccc(NC(=O)C(=O)NO)cc1`
> 100 µM (inactive)

Query: GI50; subject: `CCc1ccccc1NC(=O)C(=O)CC(=O)c1sc(Nc2ccccc2)nc1C`
> 100 µM (inactive)

Query: GI50; subject: `COc1cc2nc3c(=C(C#N)C#N)c4ccccc4n3c(=O)c2cc1OC`
> 100 µM (inactive)

Query: GI50; subject: `Cn1c(=O)[nH]n(-c2ccc3ccccc3c2)c1=O`
> 100 µM (inactive)

----------
# Test system: SNB-75
# ASSAY NAME: NCI tumour cell line growth inhibition, 48 h
The source made the active and inactive calls. No stated cut-off is given here; in the data, active = GI50 up to about 1.1 µM and inactive = higher.
MEASURED METRIC: GI50

Consider the following illustrative entries.
CC(C)=CCNc1ncnc2c1ncn2CCC(=O)OC(C)(C)C :: 13 µM (inactive)
O=C(CCCN1CCC2(CC1)C(=O)NC(=O)N2c1ccccc1)c1ccc(F)cc1 :: > 100 µM (inactive)
CC(C)(C)C(=O)C(CC(=O)c1ccccc1)C(=O)C(C)(C)C :: 15.3 µM (inactive)
CC(CCC(=O)O)C(=O)O (configuration not stated) :: > 100 µM (inactive)
COc1cc(CNc2nc3cc(C(F)(F)F)ccc3nc2C(=O)O)cc(OC)c1OC :: 19.9 µM (inactive)
Cc1ccc(-c2nnc(-c3ccc4ccccc4c3)o2)cc1 :: 6.7 µM (inactive)
C[S+]([O-])c1ccc(COP(N)(=O)N(CCCl)CCCl)cc1 (configuration not stated) :: > 100 µM (inactive)
c1csc(C[N+]23CN4CN(CN(C4)C2)C3)c1 :: > 100 µM (inactive)
COCC12CC(CC1=O)C1C2ON2c3ccccc3C(=O)C12c1ccccc1 (configuration not stated) :: > 100 µM (inactive)
CSc1ccc(NC(=O)C2c3[nH]c4ccccc4c3C3CCC(C(C)(C)C)CC3C2C(=O)O)cc1 (configuration not stated) :: 17.2 µM (inactive)

Notebook: pull reported GI50 for SNB-75, entry `Cc1cn(Cc2cccc(C3=NCCCN3)c2)c(=O)n(Cc2cccc(C3=NCCCN3)c2)c1=O`
83.6 µM (inactive)

Notebook: pull reported GI50 for SNB-75, entry `CCOCCOc1ccc(OCCOCC)cc1`
18.8 µM (inactive)

Notebook: pull reported GI50 for SNB-75, entry `O=c1[nH]c(-c2ccccc2)nc2cc([N+](=O)[O-])c(/C(Cl)=C/c3ccccc3)cc12`
22.3 µM (inactive)

Notebook: pull reported GI50 for SNB-75, entry CC(C)C(Sc1nc(-c2ccccc2)c(-c2ccccc2)[nH]1)C(=O)NN (configuration not stated)
> 100 µM (inactive)

Notebook: pull reported GI50 for SNB-75, entry CC1=C[P+](Cc2ccccc2)(c2ccccc2)CC1 (configuration not stated)
> 100 µM (inactive)

Notebook: pull reported GI50 for SNB-75, entry `C[n+]1cccc2ccc3cccnc3c21`
23.6 µM (inactive)

----------
# Tested on: NCI-H522
# ASSAY NAME: NCI tumour cell line growth inhibition, 48 h
Activity calls are given as the source filed them. Rule as the data show it: active = GI50 up to about 1.1 µM and inactive = higher.
Just give me one of these, please: label 1 (active), label 0 (inactive)

Use these answered entries as a reference point.
C=CC(Br)(CBr)CCC(Br)C(C)(C)Cl (stereo not given) :: label 0
CC(O)(CNS(=O)(=O)c1ccccc1)c1ccccc1 (stereo not given) :: label 0
O=C(NCCCCCCNC(=O)c1cccc2ccccc12)c1cccc2ccccc12 :: label 0
CC(C)=CC(=O)OC1C2C(C)=CC(O)C(O)C2(C)C2C3(O)OCC24C(CC(=O)OC14)C(C)C3O (stereo not given) :: label 1

Outcome? `CCN(CC)CCNC(=O)c1cccc2nc3ccccc3nc12`
label 0

Outcome? COc1ccc(C(SCC(N)C(=O)O)(c2ccc(OC)cc2)c2ccc(OC)cc2)cc1 (stereo not given)
label 0

Outcome? CC(Cc1ccc(O)c(O)c1)C(C)Cc1ccc(O)c(O)c1 (stereo not given) [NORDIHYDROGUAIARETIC ACID]
label 0

Outcome? CN(C)CC1CCC(CN(C)C)C(=O)C1=O (stereo not given)
label 1

Outcome? O=C(O)C(Cc1ccc(O)cn1)NC(=O)C(F)(F)F (stereo not given)
label 0

Outcome? `O=C1C=CC(=O)c2c1ccc1c3ccccc3n(Cc3ccccc3)c21`
label 0

Outcome? `O=C(CNc1ccccc1[N+](=O)[O-])Nn1c(-c2ccccc2)nc2ccccc2c1=O`
label 0

Outcome? `COC(=O)C1(Cc2ccccc2)Cc2cc3c(cc2C1)CCC3`
label 0

Outcome? `CC(=O)/N=C1/N(/C=C2\C(=O)Oc3ccccc3C2=O)C(=O)/C(=C/c2ccc(OC(C)=O)cc2)N1C`
label 0

Outcome? Clc1ccc(C(Cc2cccc(Cl)c2)c2c(Cl)nc(N3CCNCC3)nc2Cl)cc1 (stereo not given)
label 0

Outcome? `CC1=NN(C(=O)c2ccc(Cl)cc2)C(=O)/C1=C/c1ccc(Cl)cc1`
label 0

----------
# reported GI50; entries follow
# System: KM12
# ASSAY NAME: NCI tumour cell line growth inhibition, 48 h
The source made the active and inactive calls. Rule as the data show it: active = GI50 up to about 1.1 µM and inactive = higher.

Consider the following illustrative entries.
CC(=O)NNc1nc(C)c(C(/C=C/c2ccc(Cl)cc2)=N/NC(=S)NN)s1 :: > 100 µM (inactive)
N#CC(C#N)=C1C(=O)NC(N)=C1C#N :: > 100 µM (inactive)
O=C1C[C@@H]2CCCC[C@@H]2C12SCCS2 :: > 100 µM (inactive)
COC1=CC(=C(C#N)/C(=N\c2ccccc2)SC)C=C(OC)C1=O :: 63.2 µM (inactive)
CN1CCCC2C(c3ccccc3)C(C3=NCCCC3)C(c3ccccc3)CC21 (centres undefined) :: 53.2 µM (inactive)
CC(C)=CCC[C@@H](C)/C=C/C=C(\C)C(=O)CC[C@@H]1CC[N@+]2(C)CCCC[C@H]12 :: > 100 µM (inactive)

Query: GI50; subject: Clc1ccc(C(Cc2cccc(Cl)c2)c2c(Cl)nc(N3CCNCC3)nc2Cl)cc1 (centres undefined)
13.9 µM (inactive)

Query: GI50; subject: C1COC2SC3=C(SC(=C4SC5=C(SCCS5)S4)S3)SC2O1 (centres undefined)
17.4 µM (inactive)

Query: GI50; subject: `CN(C)c1ccc(/C=C2\N=C(c3ccccc3)N(c3ccc4c(c3)Sc3cc(N5C(=O)/C(=C/c6ccc(N(C)C)cc6)N=C5c5ccccc5)ccc3N4)C2=O)cc1`
> 100 µM (inactive)

Query: GI50; subject: CCCN(C(=O)c1ccccc1)C(C#N)c1ccc(C(C#N)N(CCC)C(=O)c2ccccc2)cc1 (centres undefined)
> 100 µM (inactive)

Query: GI50; subject: `CC1(C)CC(=O)C(C(=O)C(=O)NC2=C(Cl)C(=O)c3ccccc3C2=O)C(=O)C1`
42.3 µM (inactive)

Query: GI50; subject: O=c1[nH]c(=O)n(C2OC(COP(=O)(O)OP(=O)(O)O)C(O)C2O)cc1F (centres undefined)
2.28 µM (inactive)

Query: GI50; subject: CC(C)=C1C2CC3(C)CCC2(C)CCC13.CC1=CCC2C3(C)CCC2(C(C)C)C1C3 (centres undefined)
19.5 µM (inactive)

Query: GI50; subject: Clc1ccc(C2=NNC(c3cccc(Cl)c3)C2)cc1 (centres undefined)
35.9 µM (inactive)

Cited source: ChEMBL document CHEMBL1201862
